Ref: paper PMC7248394

Target: IN1−288 F185K/C250S (HIV-1 integrase) (Human immunodeficiency virus type 1 group M subtype B, UniProt P12497, C1427S/F1332K)
Construct: we first expressed and purified IN1−288 F185K/C250S as previously described; made in house
Test: Fluorescence anisotropy binding of fluorescein-labeled IN181−188 peptides to IN
Measurement name: pKd
Numbers only, as −log10 of the molar value.

CC[C@H](C)[C@@H]1NC(=O)[C@H](Cc2ccccc2)NC(=O)CN(C(=O)[C@H](Cc2c[nH]c3ccccc23)NC(=O)c2ccc3c(c2)C(=O)OC32c3ccc(O)cc3Oc3cc(O)ccc32)CCn2cc(nn2)CN(CC(N)=O)C(=O)[C@H](CCCCN)NC(=O)[C@H](CCCNC(=N)N)NC(=O)[C@H](CCCCN)NC(=O)[C@H](Cc2ccccc2)NC(=O)[C@H](CC(N)=O)NC(=O)[C@H](Cc2c[nH]cn2)NC1=O; 5.11

Now turn to the next compound.
"CC[C@H](C)[C@@H]1NC(=O)[C@H](Cc2ccccc2)NC(=O)CN(C(=O)[C@H](Cc2c[nH]c3ccccc23)NC(=O)c2ccc3c(c2)C(=O)OC32c3ccc(O)cc3Oc3cc(O)ccc32)Cc2cn(nn2)CCCN(CC(N)=O)C(=O)[C@H](CCCCN)NC(=O)[C@H](CCCNC(=N)N)NC(=O)[C@H](CCCCN)NC(=O)[C@H](Cc2ccccc2)NC(=O)[C@H](CC(N)=O)NC(=O)[C@H](Cc2c[nH]cn2)NC1=O" yielded pKd of 5.05
